The reported measurements were obtained from patent US4916149A.

# Protocol details: Saluretic/diuretic screening in rats (method of Lipschitz as modified by Kagawa and Kahn)
# Type: in vivo, male LATI CFY rats
# Cond: single oral dose (5 mg/kg oral screen dose), 24 hours, control 3.0
Property measured: Na/K ratio of the urine discharged

| Substance smiles | Property measured | Measured result |
| --- | --- | --- |
| COC(=O)c1ccc2c(c1)nc(C)n2NC(=O)c1ccc(Cl)c(S(N)(=O)=O)c1 | Na/K ratio of the urine discharged | 3.2 |
| CSc1nc2cc(C(=O)O)ccc2n1NC(=O)c1ccc(Cl)c(S(N)(=O)=O)c1 | Na/K ratio of the urine discharged | 3.4 |
| NS(=O)(=O)c1cc(C(=O)Nn2c(-c3ccccc3)nc3cc(C(F)(F)F)ccc32)ccc1Cl | Na/K ratio of the urine discharged | 2.9 |

----------
Recorded response vs control in vivo at 5 mg/kg by entry
# Protocol details: Saluretic/diuretic screening in rats (method of Lipschitz as modified by Kagawa and Kahn)
# Format: in vivo, male LATI CFY rats
# Cond: Rattus norvegicus, single oral dose (5 mg/kg oral screen dose), 24 hours, read-out: Water diuresis, percentage of the simultaneously measured control values

| Compound | response vs control in vivo at 5 mg/kg [%] |
| --- | --- |
| NS(=O)(=O)c1cc(C(=O)Nn2c(=O)[nH]c3cc(C(=O)O)ccc32)ccc1Cl | 129 |
| NS(=O)(=O)c1ccc2c(c1)[nH]c(=S)n2NC(=O)c1ccc(Cl)c(S(N)(=O)=O)c1 | 108 |
| NS(=O)(=O)c1cc(C(=O)Nn2cnc3ccccc32)ccc1Cl | 107 |
| CSc1nc2cc(C(F)(F)F)ccc2n1NC(=O)c1ccc(Cl)c(S(N)(=O)=O)c1 | 114 |
| NS(=O)(=O)c1cc(C(=O)Nn2c(=S)[nH]c3cc(C(=O)O)ccc32)ccc1Cl.O [Example 1, monohydrate] | 148 |
| NS(=O)(=O)c1cc(C(=O)Nn2cnc3cc(C(F)(F)F)ccc32)ccc1Cl | 107 |
| NS(=O)(=O)c1cc(C(=O)O)c(NCc2ccco2)cc1Cl [Furosemide, reference compound] | 107 |

----------
Recorded Na/K ratio of the urine discharged by entry
# Protocol details: Saluretic/diuretic screening in rats (method of Lipschitz as modified by Kagawa and Kahn)
# Type: in vivo, male LATI CFY rats
# Cond: single oral dose (5 mg/kg oral screen dose), 24 hours, control 3.0
Property measured: Na/K ratio of the urine discharged

| Compound | Property measured | Measured result |
| --- | --- | --- |
| NS(=O)(=O)c1ccc2c(c1)[nH]c(=S)n2NC(=O)c1ccc(Cl)c(S(N)(=O)=O)c1 | Na/K ratio of the urine discharged | 3.9 |
| Cc1nc2cc(C(=O)O)ccc2n1NC(=O)c1ccc(Cl)c(S(N)(=O)=O)c1 | Na/K ratio of the urine discharged | 3.3 |
| NS(=O)(=O)c1cc2c(cc1Cl)NCNS2(=O)=O [Hypothiazide, reference compound] | Na/K ratio of the urine discharged | 3.5 |
| NS(=O)(=O)c1cc(C(=O)Nn2c(=O)[nH]c3cc(C(=O)O)ccc32)ccc1Cl | Na/K ratio of the urine discharged | 3.7 |
| CSc1nc2cc(C(F)(F)F)ccc2n1NC(=O)c1ccc(Cl)c(S(N)(=O)=O)c1 | Na/K ratio of the urine discharged | 3.0 |
| Cc1nc2ccccc2n1NC(=O)c1ccc(Cl)c(S(N)(=O)=O)c1 | Na/K ratio of the urine discharged | 4.0 |
| NS(=O)(=O)c1cc(C(=O)Nn2cnc3ccccc32)ccc1Cl | Na/K ratio of the urine discharged | 3.7 |
| NS(=O)(=O)c1cc(C(=O)Nn2c(=S)[nH]c3cc(C(=O)O)ccc32)ccc1Cl.O | Na/K ratio of the urine discharged | 4.6 |
